- target: Bcl-2-related protein A1 (Homo sapiens)
- protocol-summary: inhibitors of Bim binding to Bfl-1, dose response, biochemical, multiplexed, bead-based flow cytometry (AID 1320)
- particulars: pH 7.4; 4 °C
pEC50: −log10 of the molar value.
// values below are reported pEC50
endpoint-name: pEC50

>>> measured_result("CCN1C(=O)/C(=C/C=C2\\C=CN(CC)c3ccccc32)SC1=S")
5.44
>>> measured_result("O=C(NC1=C(NC2CCS(=O)(=O)C2)C(=O)c2ccccc2C1=O)c1ccccc1 (stereo not given)")
5.18
>>> measured_result("CCN=c1scc(C)n1N=Cc1ccc(O)c(O)c1O")
4.71
>>> measured_result("COc1ccc(-n2cc(-c3ccc(OC)c(OC)c3)[nH]c2=S)cc1")
5.80
>>> measured_result("COc1cc(/C=C2\\CC/C(=C\\c3cc(OC)c(O)c(OC)c3)C2=O)cc(OC)c1O")
5.41
>>> measured_result("CN(C)c1ccc(C=C2C(=O)NC(=O)NC2=O)cc1[N+](=O)[O-]")
5.33
>>> measured_result("Cc1cccc(N2C(=S)C(C#N)C(=O)NC2c2cccs2)c1 (stereo not given)")
4.74
>>> measured_result("Cc1cccc(C(=O)/N=c2\\c(C#N)cc3c(=O)n4cccc(C)c4nc3n2Cc2ccco2)c1")
5.01
>>> measured_result("CCN1/C(=C/c2ccc3cc(C)ccc3[n+]2CC)Sc2cc(C)c(C)cc21")
4.77
>>> measured_result("O=C(O)c1ccc(NC2=CC(=NS(=O)(=O)c3ccccc3)c3ccccc3C2=O)cc1")
5.04

###

// values below are reported EC50
- target: Bcl-2-related protein A1 (Homo sapiens, UniProt Q16548)
- Sequence (Q16548 whole entry): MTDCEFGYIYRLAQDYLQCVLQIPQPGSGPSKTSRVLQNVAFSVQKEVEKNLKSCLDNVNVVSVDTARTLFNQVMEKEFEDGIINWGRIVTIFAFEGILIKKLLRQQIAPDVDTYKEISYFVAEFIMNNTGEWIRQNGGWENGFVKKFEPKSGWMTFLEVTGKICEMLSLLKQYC
- protocol-summary: inhibitors of Bim binding to Bfl-1, dose response, biochemical, multiplexed, bead-based flow cytometry (AID 1320)
- particulars: inactive by the depositor's call; pH 7.4; 4 °C
endpoint-name: EC50 (µM)

>>> measured_result("CSc1nnc2c3cc(C)ccc3n(Cc3ccccc3)c2n1 [SMR000046397]")
22.7
>>> measured_result("COc1cc(C2Nc3cccc4cccc(c34)N2)ccc1OC(C)=O")
11.1
>>> measured_result("CCOC(=O)c1ccc(/N=c2/ssnc2Cl)cc1")
37.5
>>> measured_result("Clc1nc(NCc2cccnc2)nc(N2CCOCC2)n1 [MLS000121154]")
30.8
>>> measured_result("O=C(Nc1nnc(COc2ccc(Cl)cc2)s1)c1ccco1")
8.07
>>> measured_result("O=C(Nc1ccc2nc(-c3ccco3)c(-c3ccco3)nc2c1)NC1CC1 [SMR000118524]")
3.9
>>> measured_result("COc1ccc(N2C(=O)C(=Cc3cccs3)NC2=S)cc1")
3.86
>>> measured_result("CC(C)C(=O)NC(c1ccccc1)c1cc([N+](=O)[O-])c2cccnc2c1O (stereo not given)")
26.5
>>> measured_result("N#Cc1ccc(/N=c2/ssnc2Cl)cc1 [SMR000130044]")
67.5
>>> measured_result("CCOC(=O)C(=Cc1cccc(O)c1)c1nc2sc(C)c(C)c2c(=O)[nH]1 [MLS000393989]")
9.56

###

- target: UniProt Q16548
- Sequence (Q16548 whole entry): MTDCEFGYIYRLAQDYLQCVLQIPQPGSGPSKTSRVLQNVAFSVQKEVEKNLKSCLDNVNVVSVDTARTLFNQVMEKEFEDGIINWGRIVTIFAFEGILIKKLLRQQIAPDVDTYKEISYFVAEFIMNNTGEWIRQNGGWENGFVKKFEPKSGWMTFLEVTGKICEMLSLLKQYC
- protocol-summary: inhibitors of Bim binding to Bfl-1, dose response, biochemical, multiplexed, bead-based flow cytometry (AID 1320)
- particulars: pH 7.4; 4 °C
// values below are reported EC50
endpoint-name: EC50 (µM)

>>> measured_result("Cc1ccc(NC2=C(NC(=O)c3ccccc3)C(=O)c3ccccc3C2=O)cc1Cl [MLS000392290]")
2.31
>>> measured_result("O=C(NC1=C(Nc2ccc(Cl)cc2)C(=O)c2ccccc2C1=O)c1ccccc1")
2.91
>>> measured_result("Oc1ccc(NCc2ccccc2OCc2ccccc2)cc1 [SMR000231540]")
1.12
>>> measured_result("Cn1c(=O)c(C(=O)COC(=O)c2cc(-c3ccco3)nc3ccccc23)c(N)n(Cc2ccccc2)c1=O")
1.77

###

// values below are reported pEC50
- target: Bcl-2-related protein A1 (Homo sapiens, UniProt Q16548)
- protocol-summary: inhibitors of Bim binding to Bfl-1, dose response, biochemical, multiplexed, bead-based flow cytometry (AID 1320)
- particulars: pH 7.4; 4 °C
pEC50: −log10 of the molar value. Where a name gives a salt, the structure may show the parent alone.
endpoint-name: pEC50

>>> measured_result("CN1CCc2cccc3c2[C@H]1Cc1ccc(O)c(O)c1-3 [APOMORPHINE HYDROCHLORIDE]")
4.33
>>> measured_result("CNC(CC(=O)c1ccc([N+](=O)[O-])cc1)C(Cl)(Cl)Cl (stereo unspecified)")
6.33
>>> measured_result("O=[N+]([O-])c1ccc(N2CCN(c3ccc(O)cc3)CC2)c(Cl)c1")
5.75
>>> measured_result("Fc1ccc(C2=Nc3cccc4cccc(c34)N2)cc1")
5.12
>>> measured_result("c1ccc(-c2nc(N3CCOCC3)[s+]n2-c2ccccc2)cc1")
7.30
>>> measured_result("CCOC(=O)CSC1=NC(=O)/C(=C\\c2ccc(OC(C)=O)cc2)S1")
5.48
>>> measured_result("CC(=O)NC1=C(NC2CCS(=O)(=O)C2)C(=O)c2ccccc2C1=O (stereo unspecified)")
5.81
>>> measured_result("CCC(=O)OCCNc1cc(Sc2nc3ccccc3s2)c2nonc2c1[N+](=O)[O-]")
7.10
>>> measured_result("COc1cc(CNc2ccc(N3CCCC3)cc2)cc(Cl)c1OC")
5.28
>>> measured_result("Cc1ccc(C)c(/C=C/C(=O)c2ccccc(=O)c2O)c1")
5.06
>>> measured_result("Cc1ccc(-c2cc(C(=O)Nc3nccs3)c3ccccc3n2)o1")
5.04

###

// values below are reported EC50
- target: Bcl-2-related protein A1 (Homo sapiens, UniProt Q16548)
- protocol-summary: inhibitors of Bim binding to Bfl-1, dose response, biochemical, multiplexed, bead-based flow cytometry (AID 1320)
- particulars: pH 7.4; 4 °C
endpoint-name: EC50 (µM)

>>> measured_result("CCOc1ccccc1CNc1ccc(O)cc1")
1.13
>>> measured_result("O=[N+]([O-])c1c(NCCCO)cc(Sc2nc3ccccc3s2)c2nonc12")
0.61
>>> measured_result("C=CS(=O)(=O)c1sc(Cl)c(N2CCOCC2)c1[N+](=O)[O-]")
5.46
>>> measured_result("Clc1nss/c1=N\\c1ccc(Br)cc1")
9.18
>>> measured_result("CNCc1ccccc1Sc1ccc(O)c(O)c1")
31.7
>>> measured_result("COc1ccc2c3c(cccc13)N(C)N=C2C")
0.61
>>> measured_result("O=C(c1ccccc1)c1[nH]n(-c2ccccc2)c2c(O)n(-c3ccccc3)c(=O)c1-2")
1.36
>>> measured_result("CC(C)(C)NC(=O)COc1ccc(CNc2ccc3[nH]c(O)nc3c2)cc1")
2.87
>>> measured_result("Cc1nc2scc(-c3ccccc3)c2c(=O)n1N=C1C=CC(=O)C=C1")
0.56
>>> measured_result("CNc1ccc(Br)cc(C(=O)/C=C/c2cccc(OC)c2OC)c1=O")
8.38
>>> measured_result("CCOC(=O)C1=C(Cc2ccc(OC)cc2)C(=O)c2ccccc2C1=O")
5.04
>>> measured_result("Cc1cccc(NC2=NC(=O)C(=CC=Cc3ccco3)S2)c1C")
3.17
>>> measured_result("CCOc1cccc(CNc2ccc(O)cc2)c1OCc1ccc(Cl)cc1")
2.8
>>> measured_result("Cc1cc(-c2cc(-c3ccc(Cl)cc3)nc(N)c2C#N)co1")
3.86
>>> measured_result("Cc1c(N=C2C(=O)N(c3ccccc3Cl)C(=O)C2Cl)c(=O)n(-c2ccccc2)n1C (stereo not drawn)")
6.04
>>> measured_result("CCOC(=O)C1CCN(C(=O)Nc2ccc3nc(-c4ccco4)c(-c4ccco4)nc3c2)CC1")
1.18
>>> measured_result("CCN(CC)C(=O)COC(=O)c1cc(-c2ccco2)nc2ccccc12")
1.03
>>> measured_result("COc1cc(C2Nc3cccc4cccc(c34)N2)cc(OC)c1O")
1.73
>>> measured_result("COc1ccc(N2C(=O)C(=Nc3c(C)n(C)n(-c4ccccc4)c3=O)C(Cl)C2=O)cc1 (stereo not drawn)")
12
>>> measured_result("Cc1ccc(-c2c3c([nH]c(=S)c2C#N)CCCC3)o1")
8.21
>>> measured_result("CC(=O)c1ccc(NC(=O)c2ccc3nc(-c4ccco4)c(-c4ccco4)nc3c2)cc1")
2.34
>>> measured_result("Cc1ccc(-c2cc(-c3ccc(F)cc3)c(C#N)c(N)n2)o1")
5.2
>>> measured_result("O=C(Nc1ccccc1)c1ccc2nc(-c3ccco3)c(-c3ccco3)nc2c1")
7.56
>>> measured_result("O=C1C=CC(C=NNC(=O)C(=Cc2ccc([N+](=O)[O-])cc2)NC(=O)c2ccccc2)C(O)=C1O (stereo not drawn)")
5.22
>>> measured_result("O=C(Nc1ccc2nc(-c3ccco3)c(-c3ccco3)nc2c1)N1CCN(c2ccccn2)CC1")
5.94
>>> measured_result("CC1=CC(=O)c2c(O)ccc(O)c2C1=O")
2.87
>>> measured_result("Cc1ccc(-c2cc(-c3ccc(C)o3)nc(N)c2C#N)cc1")
2.25
>>> measured_result("Cc1cc(N)ccc1N1CCCC1")
7.93
>>> measured_result("CC1CC(=Cc2cccc(F)c2)C2=NC(=S)NC(c3cccc(F)c3)C2C1 (stereo not drawn)")
15.2
>>> measured_result("COc1cc(CNc2ccc3[nH]c(=O)[nH]c3c2)cc(Br)c1OCC(=O)NC(C)(C)C")
0.87
>>> measured_result("O=C(Nc1ccc2nc(-c3ccco3)c(-c3ccco3)nc2c1)N1CCCCCC1")
0.92
>>> measured_result("COc1ccccc1NC1=C(NC(C)=O)C(=O)c2ccccc2C1=O")
1.41
>>> measured_result("O=[N+]([O-])c1ccc(N=NCc2ccc(O)c(O)c2O)c(S(=O)(=O)N2CCOCC2)c1")
4.48
